Ref: patent US20250375454A1

# Experiment notes: MTT cytotoxicity assay, MIHA normal hepatocytes
# Format: cell-based
# Condition context: human, MIHA normal hepatocyte cells, 48 h, all concentrations, read-out: cell viability
Readout label: viability at 48 h

Answer with the recorded viability at 48 h of O=c1oc(-c2ccc3ccccc3c2)nc2cc([N+](=O)[O-])ccc12 [ZAK-I-57] only.
> 90%
